These data points were gathered from patent US20250340551A1.

# testTarget: human STAT6 (Homo sapiens (Human))
# Sequence (P42226 122-658): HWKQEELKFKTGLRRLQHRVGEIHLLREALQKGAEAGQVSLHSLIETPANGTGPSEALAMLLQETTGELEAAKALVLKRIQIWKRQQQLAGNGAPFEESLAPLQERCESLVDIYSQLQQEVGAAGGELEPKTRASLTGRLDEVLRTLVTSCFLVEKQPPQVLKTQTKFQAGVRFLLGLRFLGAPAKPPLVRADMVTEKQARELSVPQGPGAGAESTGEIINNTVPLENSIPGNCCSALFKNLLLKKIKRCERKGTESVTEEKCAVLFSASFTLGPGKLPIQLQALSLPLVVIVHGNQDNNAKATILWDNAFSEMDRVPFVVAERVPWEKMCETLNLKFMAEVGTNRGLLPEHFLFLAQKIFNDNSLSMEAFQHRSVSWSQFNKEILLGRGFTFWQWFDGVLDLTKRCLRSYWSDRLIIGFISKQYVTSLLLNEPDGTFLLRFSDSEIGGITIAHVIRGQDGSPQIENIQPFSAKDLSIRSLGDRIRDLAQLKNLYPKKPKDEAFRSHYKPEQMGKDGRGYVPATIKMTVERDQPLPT
Hi! Just check whether Kd is below 400 nM. Below gives YES, equal or above gives NO.

[
  {
    "compound": "CN(C)C(=O)c1ccc(C2CCN(Cc3cc4c(-c5ccc(N)c(C#N)c5)ccnc4n3C)CC2)cc1",
    "categoryLabel": "YES"
  },
  {
    "compound": "CC(=O)Nc1ccc(-c2ccnc3c2cc(CN2CCC(c4ccc(C(=O)N(C)C)cc4)CC2)n3C)cn1",
    "categoryLabel": "YES"
  },
  {
    "compound": "C[C@@H](c1cc2c(-c3ccc(N)cn3)ccnc2n1C)N1CCC(c2ccc(C(=O)N(C)C)cc2)CC1",
    "categoryLabel": "NO"
  },
  {
    "compound": "COc1cc(-c2ccnc3c2cc(CN2CCC(c4ccc(C(=O)N(C)C)cc4)CC2)n3C)c(C)nc1N",
    "categoryLabel": "NO"
  },
  {
    "compound": "CNc1ccc(-c2ccnc3c2cc(CN2CC[C@@H](c4ccc(C(=O)N(C)C)cc4)[C@@H](F)C2)n3C)cn1 (stereo in doubt)",
    "categoryLabel": "YES"
  },
  {
    "compound": "C[C@H]1C[C@H](c2ccc(C(=O)N(C)C)cc2)CCN1Cc1cc2c(-c3ccc(N)nc3C#N)ccnc2n1C (single isomer, unassigned)",
    "categoryLabel": "NO"
  },
  {
    "compound": "Cc1cc(C(=O)N(C)C)ccc1C1CCN([C@@H](C)c2cc3c(-c4ccc(N)nc4C#N)ccnc3n2C)CC1",
    "categoryLabel": "YES"
  }
]

----------
Kd, UniProtKB P42226, per-entry values.

[
  {
    "compound": "CNc1ccc(-c2ccnc3c2cc(CN2CC=C(c4c(C)cc(C(=O)N(C)C)cc4C)CC2)n3C)cn1",
    "unitsOfMeasure": "nM",
    "Kd": 40.4
  },
  {
    "compound": "Cc1cc(-c2ccnc3c2cc(CN2CCC(c4ccc(C(=O)N(C)C)cc4)CC2)n3C)c(C)nc1N",
    "unitsOfMeasure": "nM",
    "Kd": 78.5
  },
  {
    "compound": "CN(C)C(=O)c1ccc(C2CCN(Cc3cc4c(-c5ncc(N)cc5C(F)(F)F)ccnc4n3C)CC2)cc1",
    "unitsOfMeasure": "nM",
    "Kd": 7290
  },
  {
    "compound": "C[C@H]1C[C@@H](c2ccc(C(=O)N(C)C)cc2)CCN1Cc1cc2c(-c3ccc(N)cn3)ccnc2n1C (single isomer, unassigned)",
    "unitsOfMeasure": "nM",
    "Kd": 47.4
  }
]

----------
Property: pEC50; scope: individual compounds
# Tested on: Eotaxin-3 (CCL26) release in human whole blood stimulated with IL-4
# experimentalProtocol: Human whole blood eotaxin-3 assay (IL-4 stimulated, Eotaxin-3 release)
# Format: cell-based
# reportedConditions: Homo sapiens, Hec50, 48 h
pEC50: −log10 of the molar value.

[
  {
    "structureSmilesString": "CN(C)C(=O)c1ccc(C2CCN(Cc3cc4c(-c5ccc(N)nc5C#N)ccnc4n3C)CC2)cc1",
    "pEC50": 6.06
  },
  {
    "structureSmilesString": "[2H]C([2H])([2H])N(C(=O)c1ccc(C2=CCN([C@@H](C)c3cc4c(-c5ccc(NC)nn5)ccnc4n3C)CC2)cc1)C([2H])([2H])[2H]",
    "pEC50": 5.89
  },
  {
    "structureSmilesString": "CNc1ccc(-c2ccnc3c2cc(CN2CCC(c4ccc(C(=O)N(C)C)cc4C)CC2)n3C)nn1",
    "pEC50": 4.85
  },
  {
    "structureSmilesString": "Cc1cc(C(=O)N(C)C)cc(F)c1C1=CCN([C@@H](C)c2cc3c(-c4ccc(N)nn4)ccnc3n2C)CC1",
    "pEC50": 7.94
  },
  {
    "structureSmilesString": "CNc1ccc(-c2ccnc3c2cc([C@H](C)N2CC=C(c4c(C)cc(C(=O)N(C)C)cc4F)CC2)n3C)cn1",
    "pEC50": 6.36
  },
  {
    "structureSmilesString": "Cc1cc(C(=O)N(C)C)ccc1C1=CCN(Cc2cc3c(-c4ccc(N)nn4)ccnc3n2C)CC1",
    "pEC50": 6.51
  },
  {
    "structureSmilesString": "CN(C)C(=O)c1ccc(C2=CCN(Cc3cc4c(-c5ccc(N)nc5)ccnc4n3C)CC2)c(OC(F)(F)F)c1",
    "pEC50": 6.10
  },
  {
    "structureSmilesString": "CNc1ccc(-c2ccnc3c2cc([C@@H](C)N2CC=C(c4c(C)cc(C(=O)N(C)C)cc4F)CC2)n3C)nc1",
    "pEC50": 6.96
  },
  {
    "structureSmilesString": "CN(C)C(=O)c1cc(F)c(C2=CCN(Cc3cc4c(-c5ccc(N)nc5C#N)ccnc4n3C)CC2)c(F)c1",
    "pEC50": 7.01
  },
  {
    "structureSmilesString": "[2H]C([2H])([2H])N(C(=O)c1ccc(C2CCN([C@@H](C)c3cc4c(-c5cnc(N)nn5)ccnc4n3C)CC2)cc1)C([2H])([2H])[2H]",
    "pEC50": 5.50
  },
  {
    "structureSmilesString": "CNc1ccc(-c2ccnc3c2cc(CN2CC=C(c4c(F)cc(C(=O)N(C)C)cc4Cl)CC2)n3C)nn1",
    "pEC50": 6.67
  },
  {
    "structureSmilesString": "CNc1ccc(-c2ccnc3c2cc(CN2CC=C(c4ccc(C(=O)N(C)C)cc4C)CC2)n3C)cn1",
    "pEC50": 6.02
  },
  {
    "structureSmilesString": "CNc1ccc(-c2ccnc3c2cc(CN2CCC(c4ccc(C(=O)N(C)C)cc4F)CC2)n3C)cn1",
    "pEC50": 5.59
  },
  {
    "structureSmilesString": "[2H]C([2H])([2H])N(C(=O)c1ccc(C2=CCN([C@@H](C)c3cc4c(-c5ncc(N)cc5F)ccnc4n3C)CC2)cc1)C([2H])([2H])[2H]",
    "pEC50": 5.78
  },
  {
    "structureSmilesString": "Cc1cc(C(=O)N(C)C)cc(F)c1C1=CCN([C@H](C)c2cc3c(-c4ccc(N)nc4)ccnc3n2C)CC1",
    "pEC50": 7.99
  },
  {
    "structureSmilesString": "CN(C)C(=O)c1cc(F)c(C2=CCN(Cc3cc4c(-c5ccc(N)nn5)ccnc4n3C)CC2)c(F)c1",
    "pEC50": 6.69
  },
  {
    "structureSmilesString": "CNc1ccc(-c2ccnc3c2cc(CN2CC=C(c4c(C)cc(C(=O)N(C)C)cc4F)CC2)n3C)nn1",
    "pEC50": 7.03
  },
  {
    "structureSmilesString": "CN(C)C(=O)c1ccc(C2CCN(Cc3cc4c(-c5ccc(N)nc5)ccnc4n3C)CC2)cc1",
    "pEC50": 5.22
  },
  {
    "structureSmilesString": "[2H]C([2H])([2H])N(C(=O)c1ccc(C2CCN([C@@H](C)c3cc4c(-c5ccc(N)nc5OC)ccnc4n3C)CC2)cc1)C([2H])([2H])[2H]",
    "pEC50": 7.01
  },
  {
    "structureSmilesString": "Cc1cc(C(=O)N(C)C)cc(F)c1C1=CCN([C@@H](C)c2cc3c(-c4ccc(N)nc4)ccnc3n2C)CC1",
    "pEC50": 5.97
  },
  {
    "structureSmilesString": "Cc1cc(C(=O)N(C)C)ccc1C1=CCN([C@H](C)c2cc3c(-c4ccc(N)nc4C#N)ccnc3n2C)CC1",
    "pEC50": 7.39
  },
  {
    "structureSmilesString": "CN(C)C(=O)c1cc(F)c(C2=CCN(Cc3cc4c(-c5ccc(N)nc5)ccnc4n3C)CC2)c(F)c1",
    "pEC50": 6.47
  },
  {
    "structureSmilesString": "[2H]C([2H])([2H])N(C(=O)c1cc(C)c(C2=CCN(Cc3cc4c(-c5ccc(N)nn5)ccnc4n3C)CC2)c(F)c1)C([2H])([2H])[2H]",
    "pEC50": 7.27
  },
  {
    "structureSmilesString": "[2H]C([2H])([2H])N(C(=O)c1ccc(N2CCN(Cc3cc4c(-c5ccc(NC)nn5)ccnc4n3C)CC2)c(C)c1)C([2H])([2H])[2H]",
    "pEC50": 4.88
  },
  {
    "structureSmilesString": "CNc1ccc(-c2ccnc3c2cc(CN2CCC(c4ccc(C(=O)N(C)C)cc4)CC2)n3C)[n+]([O-])c1",
    "pEC50": 6.48
  },
  {
    "structureSmilesString": "[2H]C([2H])([2H])N(C(=O)c1cc(C)c(C2=CCN(Cc3cc4c(-c5ccc(NC)nn5)ccnc4n3C)CC2)c(F)c1)C([2H])([2H])[2H]",
    "pEC50": 6.88
  }
]
